- TARGET: T1, human DLL3 on cells (human, UniProt Q9NYJ7 27-618)
- T1 construct: Endogenous on H1184 and SHP77; Cell line is named under assay; also called H1184; DLL3/H82
- T1 sequence: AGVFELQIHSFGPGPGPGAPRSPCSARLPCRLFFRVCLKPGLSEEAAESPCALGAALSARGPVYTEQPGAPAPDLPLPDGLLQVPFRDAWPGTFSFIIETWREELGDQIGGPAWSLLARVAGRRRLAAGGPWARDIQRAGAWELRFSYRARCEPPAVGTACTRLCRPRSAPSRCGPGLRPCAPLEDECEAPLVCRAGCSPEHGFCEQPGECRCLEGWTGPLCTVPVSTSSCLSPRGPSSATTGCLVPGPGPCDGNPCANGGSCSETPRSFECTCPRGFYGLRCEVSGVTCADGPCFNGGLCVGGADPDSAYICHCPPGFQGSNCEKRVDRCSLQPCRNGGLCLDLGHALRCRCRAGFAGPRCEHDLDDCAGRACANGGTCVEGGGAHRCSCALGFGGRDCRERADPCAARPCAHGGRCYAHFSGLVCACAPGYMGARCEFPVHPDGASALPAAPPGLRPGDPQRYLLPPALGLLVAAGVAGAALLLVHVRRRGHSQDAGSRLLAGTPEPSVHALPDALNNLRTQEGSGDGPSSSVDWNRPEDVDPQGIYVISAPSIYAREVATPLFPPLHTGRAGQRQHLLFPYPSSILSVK
- ASSAY_DETAILS: flow cytometry, DLL3/H82 cells
OBSERVATION_TYPE: pEC50
Convention used: pEC50 is expressed as -log10 of the molar concentration.

Which value of pEC50 has been reported for hu30L3H5 (antibody, human IgG1, kappa, V domains shown) VH: EVRLVQSGAEVKKPGASVKVSCKASGYTFTDYYMNWVRQAPGQSLEWMGIINPYTGDTSYNQKFRGRVTLTVDKSASTAYMELSSLRSEDTAVYYCARYHYGPHLEGYFDVWGQGTTVTVSS VL: DIVMTQSPKSLAVSLGERATINCKASENVGYVSWYQQKPGQSPKLLIYGASNRYTGVPDRFSGSGSATDFTLTISSLQAEDVAVYHCGQSYSYPLTFGQGTKLEIKR in the records? 9.37

Any idea what pEC50 was measured for hu30L1H1 (antibody, human IgG1, kappa, V domains shown) VH: EVQLVQSGAEVKKPGASVKVSCKASGYTFTDYYMNWVRQAPGQSLEWMGIINPYNGDTSYNQKFRGRVTITVDKSASTAYMELSSLRSEDTAVYYCARYHYGPHLEGYFDVWGQGTTVTVSS VL: DIVMTQSPDSLAVSLGERATINCKASENVGYVSWYQQKPGQPPKLLIYGASNRYTGVPDRFSGSGSGTDFTLTISSLQAEDVAVYYCGQSYSYPLTFGQGTKLEIKR ? 9.13

Give its pEC50 value. Item: hu30L1H3 (antibody, human IgG1, kappa, V domains shown) VH: EVRLVQSGAEVKKPGASVKVSCKASGYTFTDYYMNWVRQAPGQSLEWMGIINPYQGDTSYNQKFRGRVTLTVDKSASTAYMELSSLRSEDTAVYYCARYHYGPHLEGYFDVWGQGTTVTVSS VL: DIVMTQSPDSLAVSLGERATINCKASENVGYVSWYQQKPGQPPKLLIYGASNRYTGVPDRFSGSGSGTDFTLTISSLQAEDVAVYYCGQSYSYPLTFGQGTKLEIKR 9.12

Quick one: pEC50 for hu30L3H1 (antibody, human IgG1, kappa, V domains shown) VH: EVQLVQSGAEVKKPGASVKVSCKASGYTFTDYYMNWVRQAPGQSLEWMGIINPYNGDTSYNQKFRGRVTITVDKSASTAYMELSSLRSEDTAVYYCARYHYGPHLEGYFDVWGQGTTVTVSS VL: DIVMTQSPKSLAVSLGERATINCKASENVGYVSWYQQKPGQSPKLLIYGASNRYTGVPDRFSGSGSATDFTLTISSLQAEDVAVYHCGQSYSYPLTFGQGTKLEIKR ? 9.29

GET /values?readout=pEC50&item= hu30L2H5 (antibody, human IgG1, kappa, V domains shown) VH: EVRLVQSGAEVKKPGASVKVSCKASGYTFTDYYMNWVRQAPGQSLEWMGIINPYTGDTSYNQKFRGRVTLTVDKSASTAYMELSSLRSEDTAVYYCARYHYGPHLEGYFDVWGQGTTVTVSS VL: DIVMTQSPDSLAVSLGERATINCKASENVGYVSWYQQKPGQPPKLLIYGASNRYTGVPDRFSGSGSATDFTLTISSLQAEDVAVYHCGQSYSYPLTFGQGTKLEIKR 9.19

GET /values?readout=pEC50&item= hu30L1H4 (antibody, human IgG1, kappa, V domains shown) VH: EVRLVQSGAEVKKPGASVKVSCKASGYTFTDYYMNWVRQAPGQSLEWMGIINPYSGDTSYNQKFRGRVTLTVDKSASTAYMELSSLRSEDTAVYYCARYHYGPHLEGYFDVWGQGTTVTVSS VL: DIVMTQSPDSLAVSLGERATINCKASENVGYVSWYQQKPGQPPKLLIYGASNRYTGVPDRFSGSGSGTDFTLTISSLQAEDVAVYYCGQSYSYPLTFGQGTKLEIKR 9.24

Which pEC50 is reported for this binder? hu30L1H6 (antibody, human IgG1, kappa, V domains shown) VH: EVRLVQSGAEVKKPGASVKVSCKASGYTFTDYYMNWVRQAPGQSLEWMGIINPYNVDTSYNQKFRGRVTLTVDKSASTAYMELSSLRSEDTAVYYCARYHYGPHLEGYFDVWGQGTTVTVSS VL: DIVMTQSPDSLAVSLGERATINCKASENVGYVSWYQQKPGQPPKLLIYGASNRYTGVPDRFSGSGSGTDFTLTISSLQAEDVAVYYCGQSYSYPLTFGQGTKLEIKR 9.25

Which pEC50 value belongs to hu30L1H5 (antibody, human IgG1, kappa, V domains shown) VH: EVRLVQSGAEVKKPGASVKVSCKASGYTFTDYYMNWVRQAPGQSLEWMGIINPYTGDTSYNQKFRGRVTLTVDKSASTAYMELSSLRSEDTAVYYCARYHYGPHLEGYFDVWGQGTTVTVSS VL: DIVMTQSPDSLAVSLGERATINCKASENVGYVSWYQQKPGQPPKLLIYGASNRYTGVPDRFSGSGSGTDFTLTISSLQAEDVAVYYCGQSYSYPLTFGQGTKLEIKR ? 9.06

I am curious: what pEC50 value has been reported for hu30L3H3 (antibody, human IgG1, kappa, V domains shown) VH: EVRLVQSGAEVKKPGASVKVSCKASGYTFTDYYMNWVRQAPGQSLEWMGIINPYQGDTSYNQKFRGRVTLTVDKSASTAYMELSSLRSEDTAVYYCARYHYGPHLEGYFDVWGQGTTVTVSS VL: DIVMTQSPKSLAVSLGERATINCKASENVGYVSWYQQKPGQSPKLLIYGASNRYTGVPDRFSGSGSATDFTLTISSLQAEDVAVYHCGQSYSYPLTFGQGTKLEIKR ? 9.37

I'd like to know its pEC50. The binder in question is hu30L2H3 (antibody, human IgG1, kappa, V domains shown) VH: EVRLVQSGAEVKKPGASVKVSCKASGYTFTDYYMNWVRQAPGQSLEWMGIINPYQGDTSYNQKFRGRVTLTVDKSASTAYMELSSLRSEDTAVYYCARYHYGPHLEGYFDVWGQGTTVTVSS VL: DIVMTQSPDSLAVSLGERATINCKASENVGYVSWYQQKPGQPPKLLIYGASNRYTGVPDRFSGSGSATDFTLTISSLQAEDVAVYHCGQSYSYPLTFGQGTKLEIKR 9.23

Source: patent US20250376519A1
